Cited source for all entries: patent US5792622A

# Tested on: S. typhimurium
# Type: cell-based
# condition label: Table 1, incubation 2:00 hrs
assay endpoint: absorbance of reduced dye
Give a plain numeric answer without units written out.

Observe how each entry below is paired with its result.
# molecule, absorbance of reduced dye
records = [
    ("COc1cc(-c2ccc(-n3nc(-c4ccccc4)n[n+]3-c3ccc([N+](=O)[O-])cc3)c(OC)c2)ccc1-n1nc(-c2ccccc2)n[n+]1-c1ccc([N+](=O)[O-])cc1 [NBT]", 0.24),
    ("COc1cc(-c2ccc(-n3nc(-c4ccccc4)n[n+]3-c3ccccc3)c(OC)c2)ccc1-n1nc(-c2ccccc2)n[n+]1-c1ccccc1 [TB]", 0.22),
    ("O=[N+]([O-])c1ccc(-[n+]2nc(-c3ccccc3)nn2-c2ccc(I)cc2)cc1 [INT]", 0.06),
]

Next item in the queue.
**Q:** Returns the measured absorbance of reduced dye for the input molecule. Input: c1ccc(-c2nn(-c3ccccc3)[n+](-c3cccc4ccccc34)n2)cc1 [TV]
**A:** 0.04
